target: UniProtKB O75116; experiment: Z-lyte FRET assay to measure kinase inhibition, ROCK2; assay type: biochemical
Sequence (O75116 whole entry, species assumed): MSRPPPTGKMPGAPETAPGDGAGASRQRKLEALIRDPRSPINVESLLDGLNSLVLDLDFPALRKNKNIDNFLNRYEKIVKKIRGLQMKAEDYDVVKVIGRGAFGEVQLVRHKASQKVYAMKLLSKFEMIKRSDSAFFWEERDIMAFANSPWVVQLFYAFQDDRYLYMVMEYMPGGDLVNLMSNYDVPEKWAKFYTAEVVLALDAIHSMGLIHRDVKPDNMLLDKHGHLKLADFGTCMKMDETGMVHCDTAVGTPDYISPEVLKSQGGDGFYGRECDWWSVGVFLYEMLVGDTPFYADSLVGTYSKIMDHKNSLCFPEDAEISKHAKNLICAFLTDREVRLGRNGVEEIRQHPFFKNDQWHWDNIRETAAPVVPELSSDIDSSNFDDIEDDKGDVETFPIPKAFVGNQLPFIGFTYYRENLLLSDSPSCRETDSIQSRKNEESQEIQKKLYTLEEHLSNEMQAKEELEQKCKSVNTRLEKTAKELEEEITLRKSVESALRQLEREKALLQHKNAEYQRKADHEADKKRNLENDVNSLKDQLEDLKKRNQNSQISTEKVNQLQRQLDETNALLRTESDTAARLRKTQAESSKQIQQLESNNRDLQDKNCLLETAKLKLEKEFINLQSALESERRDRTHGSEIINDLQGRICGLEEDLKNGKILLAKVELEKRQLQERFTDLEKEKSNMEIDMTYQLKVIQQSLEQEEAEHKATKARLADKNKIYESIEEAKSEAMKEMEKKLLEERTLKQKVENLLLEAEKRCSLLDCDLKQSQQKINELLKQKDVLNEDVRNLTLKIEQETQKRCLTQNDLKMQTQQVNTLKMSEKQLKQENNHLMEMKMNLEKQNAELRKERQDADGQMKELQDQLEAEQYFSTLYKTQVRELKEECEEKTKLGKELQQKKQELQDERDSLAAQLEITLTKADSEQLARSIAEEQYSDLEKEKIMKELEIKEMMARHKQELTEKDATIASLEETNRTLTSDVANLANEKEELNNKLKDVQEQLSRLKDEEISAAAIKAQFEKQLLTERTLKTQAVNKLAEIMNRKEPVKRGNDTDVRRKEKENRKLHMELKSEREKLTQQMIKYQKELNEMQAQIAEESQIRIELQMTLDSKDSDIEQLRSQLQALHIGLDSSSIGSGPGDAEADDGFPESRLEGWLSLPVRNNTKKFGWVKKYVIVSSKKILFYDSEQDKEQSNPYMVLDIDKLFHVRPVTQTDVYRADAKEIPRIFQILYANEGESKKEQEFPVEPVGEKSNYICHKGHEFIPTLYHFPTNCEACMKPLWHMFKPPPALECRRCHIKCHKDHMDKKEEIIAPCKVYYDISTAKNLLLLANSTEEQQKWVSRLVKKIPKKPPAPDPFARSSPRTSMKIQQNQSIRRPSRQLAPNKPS
Decision: IC50 beneath 1 µM gives 1.0; IC50 meeting or exceeding 1 µM gives 0.0.

Here are 3 compounds together with their reported answers.
| compound | assay.target | label.value |
| --- | --- | --- |
| COc1ccccc1CNC(=O)c1cccc2c1ccn2-c1ccnc(N)n1 | UniProtKB O75116 | 0.0 |
| Nc1nccc(N2CCc3ccc(F)cc32)n1 | UniProtKB O75116 | 0.0 |
| Nc1nccc(Nc2ccc(OC(F)F)cc2)n1 | UniProtKB O75116 | 0.0 |

State whether 1 µM exceeds IC50 recorded for CC1CN(c2ccnc(N)n2)c2ccccc21 (centres unmarked) . 0.0

Next entry: "COc1cccc(CNC(=O)c2cccc3c2ccn3-c2ccnc(N)n2)c1" 1.0
